experiment_summary: NCI Yeast Anticancer Drug Screen. Data for the mlh1 rad18 strain (AID 175)
stated_conditions: S. cerevisiae mlh1 rad18 strain growth inhibition; at 50.0 µM; stronger effect = higher value
This is part of a sample that, as a whole, favours compounds with a hit. Of some 79,000 tested, about 15% had one in any assay.
Parameter: growth inhibition. Scope: all listed entries.
Answer in %, number only, no unit symbol.

QUERY: Consider the molecule Cc1ccc(S(=O)(=O)NCCC(=O)O)cc1 and give its measured growth inhibition.
RESULT: -4.85

QUERY: Same lookup for Cc1[nH]c2c(O)ccc(O)c2c1C , please.
RESULT: 4.9

QUERY: Same lookup for O=C1c2cc3c(cc2CC12Cc1cc4c(cc1C2=O)CCCC4)CCCC3 , please.
RESULT: -37.1

Further cases:
QUERY: Consider the molecule CCOC(=O)C(=O)Cc1ccccn1 and give its measured growth inhibition.
RESULT: -13.2

QUERY: Same lookup for CCSc1cccc(C(=O)O)c1 , please.
RESULT: -7.8

QUERY: Same lookup for CC(=O)CCCC(CC(C)O)[Si](C)(C)C (configuration not stated) , please.
RESULT: -23.6

QUERY: Same lookup for C(=Nc1ccccc1-c1ccccc1N=Cc1ccccc1)c1ccccc1 , please.
RESULT: -17.9

QUERY: Same lookup for CCCOc1cc2c(cc1C(C)c1ccc(OC)cc1)OCO2 (configuration not stated) , please.
RESULT: -53

====

experiment_summary: NCI Yeast Anticancer Drug Screen. Data for the mlh1 rad18 strain (AID 175)
stated_conditions: S. cerevisiae mlh1 rad18 strain growth inhibition; at 50.0 µM; stronger effect = higher value
This is part of a sample that, as a whole, favours compounds with a hit. Of some 79,000 tested, about 15% had one in any assay.
Parameter: growth inhibition. Scope: all listed entries.
Answer in %, number only, no unit symbol.

Worked set:
QUERY: Consider the compound NC1=NS(=O)(=O)c2ccccc21 and give its measured growth inhibition.
RESULT: -1.55

QUERY: Same lookup for CC(C)SCCC#N , please.
RESULT: -4.75

Further cases:
QUERY: Consider the compound CC(=O)Nc1cccc2c(OC(C)=O)cccc12 and give its measured growth inhibition.
RESULT: -4.1

====

Parameter: growth inhibition. Scope: all listed entries.
experiment_summary: NCI Yeast Anticancer Drug Screen. Data for the bub3 strain (AID 167)
stated_conditions: S. cerevisiae bub3 mutant strain, at 50.0 µM, stronger effect = higher value
About 79,000 compounds went through this panel and 15% of them were active in at least one assay; those are over-represented in the sample as a whole. Active and inactive are the calls of the source. Cut-off read from the data, not from the text of the source: active = growth inhibition above about 70%; inactive = the rest.

Worked set:
QUERY: Consider the compound CCCC(=O)OC1C(CO)OC(n2cc(F)c(=O)[nH]c2=O)C1F (stereo not given) and give its measured growth inhibition.
RESULT: 3.75% (inactive)

QUERY: Same lookup for CC(NNC(=S)N1CCCCCC1)c1cccc[n+]1[O-] (stereo not given) , please.
RESULT: 14.3% (inactive)

QUERY: Same lookup for C[CH2][Sn]([CH2]C)([O][P+](=O)C[Si](C)(C)c1ccccc1)[O][P+](=O)C[Si](C)(C)c1ccccc1 (stereo not given) , please.
RESULT: -3.35% (inactive)

Further cases:
QUERY: Consider the compound Nc1ccc(Br)c(N)c1 and give its measured growth inhibition.
RESULT: -21.6% (inactive)

QUERY: Same lookup for CCCCCCCCC(=O)OCC(=O)N(C)C , please.
RESULT: 2.9% (inactive)

QUERY: Same lookup for CCn1ncc2c1nc(-c1ccccc1)c[n+]2[O-] , please.
RESULT: -44.9% (inactive)

QUERY: Same lookup for CC(=O)Nc1c(C)ccc([N+](=O)[O-])c1C , please.
RESULT: 2.7% (inactive)

QUERY: Same lookup for O=S(=O)(O)C(O)c1ccccc1 (stereo not given) , please.
RESULT: -15.1% (inactive)

QUERY: Same lookup for CCS(=O)(=O)c1ccc(NC(=O)OCc2ccccc2)cc1 , please.
RESULT: 25.5% (inactive)

QUERY: Same lookup for CN(C)c1ncnc2c1ncn2C1OC(CO)C(O)C1O (stereo not given) , please.
RESULT: 18.1% (inactive)
